Assay: MTT cytotoxicity in THP-1-derived macrophages
Type: cell-based, human
Details: human, THP-1-derived macrophages (PMA-differentiated); MTT, 72 h, tested 100 to 12.5 μM; read-out: CC50 Interval in THP-1-Derived Macrophages
parameterMeasured: CC50 at 72 h

{"columns": ["compoundStructureString", "parameterMeasured", "observed"],
 "data": [
  ["COC(=O)c1sc2nccnc2c1C#Cc1ccsc1", "CC50 at 72 h", "> 100 µM"],
  ["COC(=O)c1sc2nccnc2c1C#Cc1ccc(OC)cc1", "CC50 at 72 h", "> 100 µM"],
  ["COC(=O)c1sc2nccnc2c1C#Cc1ccccn1", "CC50 at 72 h", "25 to 100 µM"],
  ["O=c1oc(-c2ccccc2)c(-c2ccccc2)c2c1sc1nc3ccccc3cc12", "CC50 at 72 h", "< 12.5 µM"]
]}

Proceed to the following item.
[in] Need CC50 at 72 h, item "O=c1oc(-c2ccccc2)cc2c1sc1nccnc12"
[out] 50 to 100 µM
